Tested on: primary human fibroblasts derived from IPF patients (LL29 cells)
assay_info: Inhibition of fibrotic process: αSMA staining in TGF-β1-treated primary human fibroblasts from IPF patients (LL29 cells)
Type: cell-based
condition_context: Fibroblast, 96 h, LL29 cells treated with TGF-β1 (20 ng/mL), 4 days, 11-point dose-response from 10 μM to 1.87 nM, read-out: Inhibition of fibrosis EC50
Catalogue of molecules with associated pEC50
In simple prose, pEC50 is minus the logarithm base ten of a concentration in moles per litre.

Examples with answers:
CC(C)CC(=O)Nc1cncc(-c2cc3c(-c4nc5c(-c6ccc(F)s6)cncc5[nH]4)n[nH]c3cn2)c1 [Compound 314]
6.76
CCNCc1cncc(-c2cc3c(-c4nc5c(-c6ccccc6F)cncc5[nH]4)n[nH]c3cn2)c1 [Compound 58]
7.39

Q: Entry CCCC(=O)Nc1cncc(-c2cc3c(-c4nc5c(-c6ccc(C)s6)cncc5[nH]4)n[nH]c3cn2)c1 [Compound 355] , system primary human fibroblasts derived from IPF patients (LL29 cells): what pEC50 was measured?
Result: 6.83

###

Tested on: Wnt activity (Wnt-responsive Sp5 promoter-luciferase reporter in SW480 cells)
assay_info: Wnt activity screening assay: Sp5-Luc reporter gene in SW480 colon carcinoma cells
Format: cell-based
condition_context: Homo sapiens
pIC50: −log10 of the molar value.
// label = YES if pIC50 is not less than 7, otherwise NO

Q: Record O=C(Nc1cncc(-c2cc3c(-c4nc5c(-c6ccc(F)s6)cncc5[nH]4)n[nH]c3cn2)c1)C1CCC1 ; criterion: pIC50 no lower than 7. Met?
Result: YES

Q: Does the reported pIC50 for FC1(F)CCN(Cc2cncc(-c3cc4c(-c5nc6c(N7CCCCC7)cncc6[nH]5)n[nH]c4cn3)c2)C1 fall at or above the 7 mark?
Result: YES

Q: Answer whether pIC50 of O=C(CC1CCCCC1)Nc1cncc(-c2cc3c(-c4nc5c(-c6cccc(F)c6)cncc5[nH]4)n[nH]c3cn2)c1 is greater than or equal to 7.
Result: NO

Q: Assess whether reported pIC50 for CCNCc1cncc(-c2cc3c(-c4nc5c(-c6ccc(C)s6)cncc5[nH]4)n[nH]c3cn2)c1 sits at 7 or higher.
Result: YES

###

Tested on: Wnt activity (Wnt-responsive Sp5 promoter-luciferase reporter in SW480 cells)
assay_info: Wnt activity screening assay: Sp5-Luc reporter gene in SW480 colon carcinoma cells
Format: cell-based
condition_context: Homo sapiens
pIC50: −log10 of the molar value.
So basically: pIC50 at 7 or higher? That is class 1. Lower than 7? That is class 0.

CCCCC(=O)Nc1cncc(-c2cc3c(-c4nc5c(-c6cccc(F)c6)cncc5[nH]4)n[nH]c3cn2)c1 [Compound 18]
class 1
CCNCc1cncc(-c2cc3c(-c4nc5c(-c6ccoc6)cncc5[nH]4)n[nH]c3cn2)c1 [Compound 266]
class 0
CCNCc1cncc(-c2cc3c(-c4nc5c(-c6ccccn6)cncc5[nH]4)n[nH]c3cn2)c1 [Compound 136]
class 0
CN(C)CC(=O)Nc1cncc(-c2cc3c(-c4nc5c(-c6cccc(F)c6)cncc5[nH]4)n[nH]c3cn2)c1 [Compound 1367]
class 0
O=C(Nc1cncc(-c2cc3c(-c4nc5c(-c6ccccn6)cncc5[nH]4)n[nH]c3cn2)c1)c1ccccc1 [Compound 141]
class 0
Cc1ccc(-c2cncc3[nH]c(-c4n[nH]c5cnc(-c6cncc(NC(=O)C7CCC7)c6)cc45)nc23)s1 [Compound 358]
class 1

Q: Please check the record Fc1ccc(-c2cncc3[nH]c(-c4n[nH]c5cnc(-c6cncc(CN7CCCC7)c6)cc45)nc23)s1 [Compound 326] and state if its pIC50 is at or above 7.
Result: class 0

Q: Say whether CS(=O)(=O)NCc1cc(F)cc(-c2cncc3[nH]c(-c4n[nH]c5cnc(-c6cncc(CNCc7ccccc7)c6)cc45)nc23)c1 [Compound 413] shows pIC50 of 7 or more.
Result: class 1

Q: Given CN1CCN(c2cncc3[nH]c(-c4n[nH]c5cnc(-c6cncc(CN7CCCCC7)c6)cc45)nc23)CC1 [Compound 223] , state whether its pIC50 is at least 7.
Result: class 0

Attribution: patent US10052331B2
